measured_on: Sphingosine kinase 2 (Homo sapiens, UniProt Q9NRA0)
Sequence (Q9NRA0 whole entry, the tested form may be a part): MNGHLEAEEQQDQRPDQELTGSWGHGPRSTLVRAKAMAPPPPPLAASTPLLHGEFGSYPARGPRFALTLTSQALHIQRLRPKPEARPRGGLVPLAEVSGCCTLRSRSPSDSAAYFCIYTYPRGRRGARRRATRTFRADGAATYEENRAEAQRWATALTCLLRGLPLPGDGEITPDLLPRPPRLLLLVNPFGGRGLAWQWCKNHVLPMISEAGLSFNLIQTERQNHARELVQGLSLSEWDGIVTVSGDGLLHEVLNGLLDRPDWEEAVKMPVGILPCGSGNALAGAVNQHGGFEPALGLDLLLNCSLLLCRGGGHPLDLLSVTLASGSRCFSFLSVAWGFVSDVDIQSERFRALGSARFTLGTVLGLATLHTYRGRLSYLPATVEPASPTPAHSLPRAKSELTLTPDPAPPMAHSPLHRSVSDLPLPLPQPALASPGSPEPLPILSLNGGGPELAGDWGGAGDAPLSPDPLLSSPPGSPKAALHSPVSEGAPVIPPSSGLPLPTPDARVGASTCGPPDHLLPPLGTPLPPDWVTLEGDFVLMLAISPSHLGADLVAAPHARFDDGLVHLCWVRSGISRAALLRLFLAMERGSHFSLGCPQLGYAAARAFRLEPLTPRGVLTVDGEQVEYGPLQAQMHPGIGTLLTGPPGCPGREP
protocol_description: Inhibition of recombinant N-terminal GST-tagged human SphK2 (1 to 618 residues) expressed in baculovirus expression system using sphingosine as substrate after 1 hr in presence of ATP by off-chip mobility shift assay
readout_kind: IC50 (nM)
Unit nM implied. Number only.

Answered cases to consult:
                           smiles_structure                               measured_on  readout_kind  readout_number
0  N[C@@H]1CO[C@@H](CCCCCCCCCCCOCC2CCCCC2)[C@H]1O  Sphingosine kinase 2 (Homo sapiens, UniProt Q9NRA0)          IC50             780
1  CCCCCCCCc1cccc(CC[C@@H]2OC[C@@H](N)[C@@H]2O)c1  Sphingosine kinase 2 (Homo sapiens, UniProt Q9NRA0)          IC50            2100
2  CCCCCCCCCCCCCC[C@@H]1OC[C@@H](NC(=N)N)[C@@H]1O  Sphingosine kinase 2 (Homo sapiens, UniProt Q9NRA0)          IC50            1900
3  CCCCCCCCCCc1ccc(CC[C@@H]2OC[C@@H](N)[C@@H]2O)cc1  Sphingosine kinase 2 (Homo sapiens, UniProt Q9NRA0)          IC50             670
4  CCCCCCCOCCCCCC[C@@H]1OC[C@@H](N)[C@@H]1O  Sphingosine kinase 2 (Homo sapiens, UniProt Q9NRA0)          IC50            3900
5  N[C@@H]1CO[C@@H](CCCCCCCCCOCC2CCCCC2)[C@H]1O  Sphingosine kinase 2 (Homo sapiens, UniProt Q9NRA0)          IC50             460
6  CCCCCCCCCCCCc1ccc(CC[C@@H]2OC[C@@H](N)[C@@H]2O)cc1  Sphingosine kinase 2 (Homo sapiens, UniProt Q9NRA0)          IC50           21000

Query: // lookup IC50 for CC(C)COCCCCCCCCCCC[C@@H]1OC[C@@H](N)[C@@H]1O
Response: 840
